Reference source for all entries: patent US9663460B2

# ASSAY_TARGET: UniProt P41597
# TEST_DETAILS: Calcium activity assayed on the FLIPR Tetra in HEK-Gqi5 cells stably expressing CCR2
# Assay type: cell-based
# CONDITION: FLIPR Tetra calcium assay
RECORDED_METRIC: CCR2 % ANTAGONISM (%)

Example results:
O=[N+]([O-])c1cccc(CS(=O)(=O)c2ccc(F)cc2NS(=O)(=O)c2cc3ccccc3o2)c1
81
COc1ccc([S+]([O-])Cc2cccc(N)c2)c(NS(=O)(=O)c2cc3ccccc3o2)c1 (centres unmarked)
100
CC(C)c1ccc(S(=O)(=O)Nc2cc(Cl)ccc2[S+](C)[O-])cc1 (centres unmarked)
68

1. CSc1ccc(Cl)cc1NS(=O)(=O)c1ccc(C)c([N+](=O)[O-])c1
2. CC(C)(C)OC(=O)Nc1nc(CSc2ccc(Cl)cc2NS(=O)(=O)c2cc3ccccc3o2)cs1
3. C[S+]([O-])c1ccc(Cl)cc1NS(=O)(=O)c1ccccc1 (centres unmarked)
Reorder: CCR2 % ANTAGONISM, max to min. Output the labels ranked as instructed.
1, 3, 2
(1: 92%, 3: 48%, 2: 28%)

1. O=[N+]([O-])c1cccc(C[S+]([O-])c2ccc(F)cc2NS(=O)(=O)c2cc3ccccc3o2)c1 (centres unmarked)
2. O=[N+]([O-])c1ccc(CS(=O)(=O)c2ccc(Cl)cc2NS(=O)(=O)c2cc3ccccc3o2)cc1
// pick min by CCR2 % ANTAGONISM: 1 , 2 Respond with the label that goes with your answer.
2
(2: 20%, 1: 96%)

A. CS(=O)(=O)c1ccc(Cl)cc1NS(=O)(=O)c1ccc(F)cc1F
B. O=[N+]([O-])c1cccc(CSc2ccc(Cl)cc2NS(=O)(=O)c2cc3ccccc3o2)c1
Out of A and B , name the one with the higher CCR2 % ANTAGONISM. Respond with the label that goes with your answer.
A

----------
# ASSAY_TARGET: UniProtKB P41597
# TEST_DETAILS: Calcium activity assayed on the FLIPR Tetra in HEK-Gqi5 cells stably expressing CCR2
# CONDITION: FLIPR Tetra calcium assay
RECORDED_METRIC: IC50 (nM)

Nc1cccc(CS(=O)(=O)c2ccc(Cl)cc2NS(=O)(=O)c2cc3ccccc3o2)[n+]1[O-]
264

P. CS(=O)(=O)c1ccc(Cl)cc1NS(=O)(=O)c1ccco1
Q. C[S+]([O-])c1ccc(Cl)cc1NS(=O)(=O)c1cc2ccccc2o1 (stereo not shown)
R. O=S(=O)(Nc1cc(Cl)ccc1[S+]([O-])Cc1ccccn1)c1cc2ccccc2o1 (stereo not shown)
Please list these in order of increasing IC50. Thank you! Output the labels ranked as instructed.
Q, R, P

----------
# ASSAY_TARGET: CCR2 (Homo sapiens (Human), UniProt P41597)
# Sequence (P41597 whole entry, species assumed): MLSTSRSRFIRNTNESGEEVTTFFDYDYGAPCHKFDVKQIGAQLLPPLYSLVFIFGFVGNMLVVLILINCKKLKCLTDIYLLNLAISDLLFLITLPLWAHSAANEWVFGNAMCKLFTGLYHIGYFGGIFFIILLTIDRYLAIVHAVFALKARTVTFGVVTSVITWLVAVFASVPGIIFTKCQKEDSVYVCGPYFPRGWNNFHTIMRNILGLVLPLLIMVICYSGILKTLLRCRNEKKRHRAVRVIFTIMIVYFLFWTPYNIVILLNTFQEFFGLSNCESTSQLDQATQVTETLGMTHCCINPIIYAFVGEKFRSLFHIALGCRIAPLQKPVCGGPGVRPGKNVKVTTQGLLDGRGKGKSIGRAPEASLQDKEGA
# TEST_DETAILS: Calcium activity assayed on the FLIPR Tetra in HEK-Gqi5 cells stably expressing CCR2
# Assay type: cell-based
# CONDITION: FLIPR Tetra calcium assay
RECORDED_METRIC: CCR2 % ANTAGONISM (%)

Example results:
Nc1cccc(C[S+]([O-])c2ccc(Cl)cc2NS(=O)(=O)c2ccccc2)c1 (stereo not drawn)
62
CC(C)NC(=O)CC[S+]([O-])c1ccc(Cl)cc1NS(=O)(=O)c1ccc(Cl)c(C(F)(F)F)c1 (stereo not drawn)
93
Nc1nc(CSc2ccc(Cl)cc2NS(=O)(=O)c2cc3ccccc3o2)cs1
102
Nc1cccc(CSc2ccc(Cl)cc2NS(=O)(=O)c2ccc(Cl)cc2F)c1
88
NC(=O)NCC[S+]([O-])c1ccc(Cl)cc1NS(=O)(=O)c1cc2ccccc2o1 (stereo not drawn)
64
CN(C)CCCSc1ccc(Cl)cc1NS(=O)(=O)c1cc2ccccc2o1
106
Nc1ccccc1CSc1ccc(Cl)cc1NS(=O)(=O)c1cc2ccccc2o1
91
Nc1cc(CSc2ccc(Cl)cc2NS(=O)(=O)c2cc3ccccc3o2)n[nH]1
105

1. CC(C)(C)OC(=O)Nc1nc(C[S+]([O-])c2ccc(Cl)cc2NS(=O)(=O)c2cc3ccccc3o2)cs1 (stereo not drawn)
2. CC(C)(C)OC(=O)Nc1cc(CS(=O)(=O)c2ccc(Cl)cc2NS(=O)(=O)c2cc3ccccc3o2)cc[n+]1[O-]
3. CSc1ccc(Cl)cc1NS(=O)(=O)c1cccs1
4. Nc1cccc(CS(=O)(=O)c2ccc(Cl)cc2NS(=O)(=O)c2ccccc2)c1
Reorder: CCR2 % ANTAGONISM, max to min. Output the labels ranked as instructed.
1, 4, 2, 3
(1: 101%, 4: 52%, 2: 29%, 3: 0%)
